Overview of reported pKi across a group of compounds:
- target: GST-MCL-1 (Homo sapiens, UniProt Q07820)
- Sequence (Q07820 whole entry): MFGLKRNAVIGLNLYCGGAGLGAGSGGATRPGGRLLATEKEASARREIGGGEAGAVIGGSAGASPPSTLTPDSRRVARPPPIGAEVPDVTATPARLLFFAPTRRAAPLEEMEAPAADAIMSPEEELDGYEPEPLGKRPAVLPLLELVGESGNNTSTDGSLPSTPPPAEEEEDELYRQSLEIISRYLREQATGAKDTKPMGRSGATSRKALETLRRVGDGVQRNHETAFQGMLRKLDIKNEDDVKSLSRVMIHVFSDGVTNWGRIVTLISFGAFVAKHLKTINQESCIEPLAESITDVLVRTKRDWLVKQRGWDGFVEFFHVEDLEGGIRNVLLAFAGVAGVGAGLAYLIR
- protocol_notes: TR-FRET MCL-1 binding assay (competition with probe F-Bak)
- run_conditions: without HS; read-out: MCL-1 Binding Ki
Answer as the number alone; pKi is minus log10 of concentration in mol/L.

Example entries begin here.
Consider the compound shown here: Cc1c(Cl)c2c(Cl)c(C)c1-c1c(-c3ccc(F)cc3)sc3ncnc(c13)O[C@@H](C(=O)O)Cc1cc(ccc1OCc1ccnc(-c3ccc(OC[C@H]4CN(C)CCO4)cc3)n1)OC[C@@H](CN1CCN(C)CC1)O2 [Example 158] What is its recorded pKi?
11.52

Consider the compound shown here: Cc1c(Cl)c2c(Cl)c(C)c1-c1c(-c3ccc(F)cc3)sc3ncnc(c13)O[C@@H](C(=O)O)Cc1cc(ccc1OCc1ccnc(-c3ccc(CN4CCOCC4)cc3)n1)OC[C@@H](CN1CCN(C)CC1)O2 [Example 148] What is its recorded pKi?
10.47

Consider the compound shown here: COCCOCCOCCOc1ccc(-c2nccc(COc3ccc4cc3C[C@H](C(=O)O)Oc3ncnc5sc(-c6ccc(F)cc6)c(c35)-c3c(C)c(Cl)c(c(Cl)c3C)O[C@H](CN3CCN(C)CC3)CO4)n2)cn1 [Example 46] What is its recorded pKi?
8.99

***
Consider the compound shown here: Cc1c(Cl)c2c(Cl)c(C)c1-c1c(-c3ccc(F)cc3)sc3ncnc(c13)O[C@@H](C(=O)O)Cc1cc(ccc1OCc1ccnc(-c3cccc(CCN4CCOCC4)c3)n1)OC[C@@H](CN1CCN(C)CC1)O2 [Example 143] What is its recorded pKi?
10.64

---

- System: AMO-1 human multiple myeloma tumor cell line
- protocol_notes: AMO-1 cell viability assay (CellTiter-Glo, 24 hours)
- Assay type: cell-based
- run_conditions: Homo sapiens, AMO1, 24 h, read-out: AMO-1 Viability IC50 (μM, 10% FBS), 10% FBS, 24 hours of compound treatment
Overview of reported IC50 across a group of molecules:
Value expressed in µM; do not type the unit.

Example entries begin here.
Consider the molecule shown here: `COCCOCCOCCOCCOCCOCCOCCOc1ccc(-c2nccc(COc3ccc4cc3C[C@H](C(=O)O)Oc3ncnc5sc(-c6ccc(F)cc6)c(c35)-c3c(C)c(Cl)c(c(Cl)c3C)O[C@H](CN3CCN(C)CC3)CO4)n2)cc1` What is its recorded IC50?
0.000591

Consider the molecule shown here: `COCCOCCOCCOc1cccc(COc2ccc3cc2C[C@H](C(=O)O)Oc2ncnc4sc(-c5ccc(F)cc5)c(c24)-c2c(C)c(Cl)c(c(Cl)c2C)O[C@H](CN2CCN(C)CC2)CO3)n1` What is its recorded IC50?
0.000655

Consider the molecule shown here: `CO[C@H]1O[C@H](COc2cccc(-c3nccc(COc4ccc5cc4C[C@@H](C(=O)O)Oc4ncnc6sc(-c7ccc(F)cc7)c(c46)-c4ccc(c(Cl)c4C)O[C@H](CN4CCN(C)CC4)CO5)n3)c2)[C@@H](OC)[C@H](OC)[C@@H]1OC` What is its recorded IC50?
0.518

Next, consider the following molecule.
Consider the molecule shown here: `Cc1c(Cl)c2c(Cl)c(C)c1-c1c(-c3ccc(F)cc3)sc3ncnc(c13)O[C@@H](C(=O)O)Cc1cc(ccc1OCc1ccnc(-c3ccc(OC[C@H]4CN(C)CCCO4)cc3)n1)OC[C@@H](CN1CCN(C)CC1)O2` What is its recorded IC50?
0.00164
